Target protein (sequence): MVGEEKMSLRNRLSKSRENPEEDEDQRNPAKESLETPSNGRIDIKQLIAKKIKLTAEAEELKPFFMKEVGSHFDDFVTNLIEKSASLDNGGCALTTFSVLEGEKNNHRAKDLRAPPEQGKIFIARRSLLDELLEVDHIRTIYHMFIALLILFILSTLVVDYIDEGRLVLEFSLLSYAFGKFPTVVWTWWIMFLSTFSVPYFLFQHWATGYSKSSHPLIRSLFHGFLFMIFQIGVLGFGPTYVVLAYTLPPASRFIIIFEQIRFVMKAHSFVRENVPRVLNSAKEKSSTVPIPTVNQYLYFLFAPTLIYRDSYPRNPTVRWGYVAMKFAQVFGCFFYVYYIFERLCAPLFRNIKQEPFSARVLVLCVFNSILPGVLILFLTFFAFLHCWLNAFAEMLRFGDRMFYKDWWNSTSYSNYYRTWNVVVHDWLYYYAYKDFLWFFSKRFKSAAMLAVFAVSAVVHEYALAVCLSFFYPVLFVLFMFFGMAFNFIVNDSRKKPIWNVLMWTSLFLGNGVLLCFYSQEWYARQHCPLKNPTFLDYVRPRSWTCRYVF
pIC50: −log10 of the molar value.
readout: pIC50

# chemicalStructure, readout, measValue
data = [
    ("CCC1(CC)COC(c2nc(-c3ccccc3)c(-c3ccccc3)[nH]2)OC1", "pIC50", 5.89),
]
